Data credit: ChEMBL document CHEMBL3885861

For each record, write down the corresponding gamma-GTP.
Organism: Rattus norvegicus
Assay Overview: Open TG-GATES - Regimen: Daily Repeat
Format: toxicity, organism-based, Sprague-Dawley
Parameters: regimen Daily Repeat, gender Male, age 6 weeks
Run Conditions: in vivo, po, 0 mg/kg, […], tissue Plasma, route gavage, dose level Control, time 28 day
Please give a number only; it is taken to be in IU/L.

Request the reported gamma-GTP associated with Cc1cnc(NC(=O)C2=C(O)c3ccccc3S(=O)(=O)N2C)s1 [MELOXICAM] 0.5

Fill in the blank: the reported gamma-GTP of Cn1cnc([N+](=O)[O-])c1Sc1ncnc2nc[nH]c12 [AZATHIOPRINE] is ____. 1

Given C=CCO [ALLYL ALCOHOL] , state its recorded gamma-GTP. 1

Name the reported gamma-GTP value associated with the compound Cn1c(=O)c2c(ncn2C)n(C)c1=O [CAFFEINE] 2.2

For the compound O=C1CN(/N=C/c2ccc(-c3ccc([N+](=O)[O-])cc3)o2)C(O)=N1 [DANTROLENE] , what gamma-GTP is on record? 1.2

Using the record for Cc1cccc(Nc2cc(Cl)nc(SCC(=O)O)n2)c1C [PIRINIXIC ACID] , report its gamma-GTP. 1

If you can, please state the reported gamma-GTP value of CS(=O)(=O)Nc1ccc([N+](=O)[O-])cc1Oc1ccccc1 [NIMESULIDE] . 1.8

Looking for the measured gamma-GTP of COc1ccc(Cl)cc1C(=O)NCCc1ccc(S(=O)(=O)NC(=O)NC2CCCCC2)cc1 [GLYBURIDE] , can you help? 0.8

Which gamma-GTP reading was recorded for the compound O=C1NC(=O)C(c2ccccc2)(c2ccccc2)N1 [PHENYTOIN] ? 1.2

Sample O=P1(N(CCCl)CCCl)NCCCO1 (stereo unspecified) [CYCLOPHOSPHAMIDE ANHYDROUS] — what was its gamma-GTP? 1.2

// returns reported gamma-GTP for input COc1ccc(O)c(C(C)(C)C)c1.COc1ccc(O)cc1C(C)(C)C [BUTYLATED HYDROXYANISOLE] 1
